- Test system: HCT-116 colon
- method.summary: NCI tumour cell line growth inhibition, 48 h; in the data active = GI50 below about 0.43 µM; inactive = the rest
Labels: active, inactive

compound | class.label
O=C1c2ccccc2C(=Cc2ccccc2)c2ccccc21 | inactive
CC(=O)O[C@H](C[C@H](C(C)C)N(C)C(=O)[C@@H](NC(=O)[C@H]1CCCCN1C)C(C)C)c1nc(C(=O)N[C@@H](Cc2ccccc2)C[C@H](C)C(=O)O)c(C(C)C)s1 | active
COC(=O)[C@]12CC[C@@H](C)[C@H](C)[C@@H]1C1=CC[C@@H]3[C@@]4(C)C(C=O)=C[C@@](C)(COC(=O)c5ccco5)[C@@H]4C(=O)C[C@@]3(C)[C@]1(C)CC2 | inactive
CC(=O)c1cc2c(cc1Nc1c3ccccc3nc3occ(Cl)c13)OCO2 | active
Oc1ccc(O)c(-c2cc(-c3ccccc3)nn2-c2ccccc2)c1 | inactive
O=C(Nc1ccc(Oc2ccc3nc(NC(=O)c4ccccc4)[nH]c3c2)cc1)Nc1cc(C(F)(F)F)ccc1F | inactive
CCOC(=O)c1c2c(n(Cc3ccccc3)c1C)-c1ccccc1C(=O)C2=O | inactive
COC(=O)c1ccc(NC(=O)Nc2ccc3oc(=O)c4ccccc4c3c2)cc1 | inactive
Cc1cccc(C(=O)/C=C/SC(=NC#N)SCc2ccccc2)c1 | inactive
O=C(CCCN1CCOCC1)Nc1ccc(Cn2nnc3c2C(=O)c2nnn(Cc4ccc(NC(=O)CCCN5CCOCC5)cc4)c2C3=O)cc1 | inactive
CC[C@H](Nc1nc(N)nc(C)c1C#N)c1nc2cccc(NCc3ccc(C(=O)NO)cc3)c2c(=O)n1-c1ccccc1 | inactive
C=CC(C=O)C1(O)CCOC(=O)/C1=C\N (configuration not stated) | inactive
COc1ccc2c(c1)C(=O)C(=O)c1cc(O)c(OC)c(OC)c1-2 | inactive
COc1ccc(C2=NN(C(=O)c3cc(OC)c(OC)c(OC)c3)C(c3ccc(Cl)cc3)C2)cc1OC (configuration not stated) | inactive
Cc1cc(C2=NNC(=O)Cc3cc4c(cc32)OCCO4)cc(C)c1N | inactive
CN(C)c1ccc(/C=C(\C#N)c2nc3ccccc3n2C)cc1 | inactive
Cn1c(O)c(C(/C=C/c2ccccc2)=NCCN=C(/C=C/c2ccccc2)c2c(O)n(C)c(=O)n(C)c2=O)c(=O)n(C)c1=O | inactive

====

- System: HOP-62 NSCLC
- method.summary: NCI tumour cell line growth inhibition, 48 h
Recorded measurements of TGI, one per entry

compound | TGI
CNC(=O)c1ccc2cc(C3(O)CCn4cncc43)ccc2c1 (stereo not drawn) | > 100 µM
Cc1cc2c(cc1C)[n+](=O)c(C#N)c(Cl)n2[O-] | 55.7 µM
Fc1ccc(OCc2nc3cc(C(F)(F)F)ccc3nc2-c2ccccc2)cc1 | > 100 µM
COc1ccc(N=Nc2c(-c3ccccc3)nn(C(=O)CC(=O)Nc3cccc(Cl)c3)c2-c2ccccc2)cc1 | > 100 µM
Cn1c(O)c(C(/C=C/c2ccccc2)=NCCN=C(/C=C/c2ccccc2)c2c(O)n(C)c(=O)n(C)c2=O)c(=O)n(C)c1=O | > 50 µM
O=C(Nc1ccc(Cl)cc1F)c1cc(I)ccc1O | 8.04 µM
CN(C)c1nc2n(CCO)c(-c3ccccc3)c(-c3ccccc3)nc-2c(=O)n1 | > 100 µM
O=C(Nc1ccc(Oc2ccc3nc(NC(=O)c4ccccc4)[nH]c3c2)cc1)Nc1cc(C(F)(F)F)ccc1F | 6.65 µM
CC/C(=C(/CC)c1ccc([O-])cc1)c1ccc([O-])cc1.CC/C(=C(\CC)c1ccc([O-])cc1)c1ccc([O-])cc1.O=C([CH-]C(=O)c1ccccc1)c1ccccc1.O=C([CH-]C(=O)c1ccccc1)c1ccccc1.O=C([CH-]C(=O)c1ccccc1)c1ccccc1.O=C([CH-]C(=O)c1ccccc1)c1ccccc1.[Ti+4].[Ti+4] | 51.3 µM
Cc1cc(C2=NNC(=O)Cc3cc4c(cc32)OCCO4)cc(C)c1N | > 100 µM
Cc1ccc(S(=O)(=O)N/N=c2\c(C)c(C3=NS(=O)(=O)c4cc(S(N)(=O)=O)c(Cl)cc4N3)oc3c(Cl)cc(Cl)cc23)cc1 | > 100 µM
COc1ccc2c(c1)c1c(n2CCN(C)C)-c2cccc(OC)c2CC1 | 27.6 µM
O=C1c2ccccc2C(=Cc2ccccc2)c2ccccc21 | 10.2 µM
CCCCCC[C@H]1CC(=O)C2CCCC[C@@]23CC[C@H](CCl)N13 (stereo partly drawn) (tested in a mixture with another compound) | > 100 µM
O=C(O)NCc1ccccc1 (tested in a mixture with another compound) | > 100 µM
CN(Cc1cnc2nc(N)nc(N)c2n1)c1ccc(C(=O)NCS(=O)(=O)O)cc1 | > 100 µM
CCOC(=O)C1=C(C)NC2SC(=O)/C(=C\c3ccccc3O)N2C1c1ccccc1 (stereo not drawn) | > 100 µM
COc1cc(N/N=C/C#N)cc(OC)c1OC | > 10 µM
CC1(C)OC(C[C@]2(C#N)C[C@H](CCl)OC(C)(C)O2)C[C@@H](C[C@]2(C#N)C[C@H](CCl)OC(C)(C)O2)O1 (stereo partly drawn) | > 100 µM
Cc1cccc(C(=O)/C=C/SC(=NC#N)SCc2ccccc2)c1 | 45.4 µM
CSC1=NC(C(N)=O)C(N)N1C (stereo not drawn) | > 100 µM
CN1C(=O)N/C(=C\c2ccc(S(=O)(=O)N/N=C\C(O)C(O)C(O)CO)cc2)C1=O (stereo not drawn) | > 100 µM
NNC(=S)N/N=C(/C(=O)Nc1cc(Cl)ccc1Cl)C1C(=O)Nc2ccccc2S1=O (stereo not drawn) | > 100 µM
O=C1Nc2ccccc2S/C1=C\c1ccccc1C(F)(F)F | > 100 µM
COC(=O)[C@]12CSC[C@H]1C[C@H](c1ccccc1OC)N2 | > 100 µM
Oc1c2c(c3c4c1N=CC=4CCN=3)-c1c(Br)cc(Br)cc1CCN2 | 29.8 µM
COc1ccc2nc3cc(Cl)ccc3c(N3CCN(c4ccnc(N5CCOCC5)n4)CC3)c2c1 | > 100 µM
O=C(O)C1=C(C(=O)O)N(c2ccncc2)C(c2ccco2)=CC1c1ccccc1[N+](=O)[O-] (stereo not drawn) | 33.7 µM
O=C(CF)N(O)c1ccc(/C=C/c2ccccc2)cc1 | 32.2 µM
COc1ccc(N=C2C(=Nc3ccc(OC)cc3)N(S(=O)(=O)c3ccccc3)C(=S)N2c2ccccc2)cc1 | > 100 µM
CCOC(=O)C1=C(O)CSC1=Nc1ccccc1 | > 100 µM
Cc1c(-c2nnc(-c3ccc(Cl)cc3)o2)c(=O)n(-c2ccccc2)n1C | > 100 µM
CCOC(=O)CC1(O)CCCCC1(Sc1ccc(C)cc1)Sc1ccc(C)cc1 (stereo not drawn) | > 100 µM
COC1CCC(O)C(/C=C/[N+](=O)[O-])C1 (stereo not drawn) | 19.1 µM
O=C(O)c1ccccc1CC1Cc2ccc3c(c2C1=O)CCC3 (stereo not drawn) | > 100 µM
CO/N=C(\C)c1cccc(Nc2cc(-c3ccccc3)nc3c(O)cccc23)c1 | 8.39 µM
CCN1C(=O)NC(=O)C(C)(N2C(=O)c3c(F)c(F)c(F)c(F)c3C2=O)C1=O (stereo not drawn) | 18.3 µM
C=C1CCCCCCCCCCC12SCCC2CCCCSC (stereo not drawn) | 40.9 µM

====

- Tested on: OVCAR-3 ovarian
- method.summary: NCI tumour cell line growth inhibition, 48 h

compound | TGI
CCOC(=O)C1=C(C)OC(=O)[C@@]2(OC)C=C(Cl)[C@@]12C | > 100 µM
COc1cccc2c1-c1c(c3ccc([N+](=O)[O-])cc3c(=O)n1CCCCl)C2=O | > 50 µM
C/C(=N\Oc1cc(Cl)ncn1)c1ccccn1 | > 100 µM
c1ccc(C2SCc3nc4cc5ccccc5cc4n32)cc1 (stereo not given) | > 100 µM
CO/N=C(/C(=O)N(C(=O)/C(=N/OC)c1csc(NC(c2ccccc2)(c2ccccc2)c2ccccc2)n1)n1cnn(CC(=O)OC(C)(C)C)c1=O)c1csc(NC(c2ccccc2)(c2ccccc2)c2ccccc2)n1 | > 10 µM
CC(=O)OCC(=O)O[C@@H]1C[C@]2(C(C)C)O[C@@]1(C)[C@@H]1CC[C@@H](C)[C@H]1[C@@H]2OC(=O)/C=C/c1ccccc1 | > 100 µM
CCCCCCCCCCCCCCCC(=O)OCC1CCCN2CCCCC12 (stereo not given) | > 100 µM
Cc1cc2c(cc1C)[n+](=O)c(C#N)c(Cl)n2[O-] | 20.6 µM
O=C1c2ccccc2C(=Cc2ccccc2)c2ccccc21 | 9.11 µM
C[C@@H]1CC[C@@H]2[C@@H]1[C@H](OC(=O)/C=C/c1ccccc1)[C@]1(C3CCCCC3)C[C@@H](NC(=O)CO)[C@@]2(C)O1 | 34.2 µM
Cc1c(-c2nnc(-c3ccc(Cl)cc3)o2)c(=O)n(-c2ccccc2)n1C | > 100 µM
O=c1cccccc1NCCCCCCNc1cccccc1=O | > 100 µM
CN(N=O)C(=O)N[C@@H](C=O)[C@@H](O)[C@H](O)[C@H](O)CO | 670 µM
CC(=O)C1=C(C)Cn2c(=O)c3ccccc3c(=O)n2C1 | > 100 µM
CCOC(=O)[C@H](O)[C@@H](O)C(=O)NCc1ccc(C(=O)c2ccccc2)cc1 | > 100 µM
O=[N+]([O-])c1ccc2c(N3CCC(CCCC4CCN(c5ncnc6cc([N+](=O)[O-])ccc56)CC4)CC3)ncnc2c1 | > 100 µM
C=CC(C)(O)/C=C/C=C(\C)C(CC1OC1(C)C)OC(=O)/C(C)=C\C (stereo not given) | > 100 µM
COc1c(NC(C)=O)cc(C)cc1NC(C)=O | > 100 µM
CSCCC(N)P(C)(=O)O (stereo not given) | > 100 µM
Cc1noc(C)c1-c1cc(O)cc(C(O)c2ccccc2)c1 (stereo not given) | > 100 µM
